Experiment: Phase 1/2 clinical study, plasma pharmacokinetic evaluation
Format: in vivo, human
Conditions: human, plasma, oral, 200 mg, Cycle 2 Day 1; 200 mg BID Arm B (with azole); N=5 (three patients excluded); mean
readout.kind: Cmax (ng/mL)
One number for each entry, in ng/mL.

Ask: Which Cmax is listed for C=C1C[C@@H]2CC[C@H]1[C@@H](C(=O)N1CCC3(CC1)CN(c1ncncc1Oc1ccc(F)cc1C(=O)N(C(C)C)C(C)C)C3)N2 [the present compound] ?
Reply: 4070

---

Experiment: Phase 1/2 clinical study, plasma pharmacokinetic evaluation
Assay type: in vivo, human
Conditions: human, plasma, oral, 100 mg, 100 mg BID Arm B, Cycle 1 Day 1, N=4, mean
Protocol: In the present test of the present compound, PK samples have been collected in up to 24 patients dosed in dose groups of 40, 80, 100, and 120 mg BID Arm A, and in dose groups of 40 and 60 mg BID Arm B (Table 6). Large preliminary PK inter-patient variability was observed. (1) In the present study, PK samples have been collected in up to 42 patients dosed in dose groups of 40, 80, 100, 120, 140 and 200 mg BID Arm A, and in dose groups of 40, 60, 100, and 200 mg BID Arm B (Table 15). […]
readout.kind: AUC(0-t) (ng·h/mL)
Answers are plain numbers, in ng·h/mL.

Ask: Which AUC(0-t) is listed for C=C1C[C@@H]2CC[C@H]1[C@@H](C(=O)N1CCC3(CC1)CN(c1ncncc1Oc1ccc(F)cc1C(=O)N(C(C)C)C(C)C)C3)N2 [the present compound] ?
Reply: 5600

Reference source: patent US20260248787A9
